- target.system: Yer064c (UniProt P40041)
- Sequence: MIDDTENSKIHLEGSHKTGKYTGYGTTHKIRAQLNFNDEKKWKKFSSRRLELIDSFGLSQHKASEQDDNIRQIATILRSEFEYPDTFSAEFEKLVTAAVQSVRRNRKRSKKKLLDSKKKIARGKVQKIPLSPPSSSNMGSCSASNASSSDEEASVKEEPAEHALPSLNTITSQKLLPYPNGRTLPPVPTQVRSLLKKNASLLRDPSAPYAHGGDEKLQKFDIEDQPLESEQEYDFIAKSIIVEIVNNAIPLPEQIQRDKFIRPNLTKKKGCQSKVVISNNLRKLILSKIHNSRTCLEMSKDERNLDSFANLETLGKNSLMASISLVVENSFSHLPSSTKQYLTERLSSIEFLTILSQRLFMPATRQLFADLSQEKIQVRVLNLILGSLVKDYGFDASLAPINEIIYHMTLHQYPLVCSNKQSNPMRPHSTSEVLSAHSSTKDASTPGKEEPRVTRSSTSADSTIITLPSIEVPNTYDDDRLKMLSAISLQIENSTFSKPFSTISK
- protocol.text: PBM E-score (8-mer binding enrichment) (E-score (-0.5 to 0.5)); higher = stronger / more preferred TF binding
- measurement.parameters: protein concentration: 200 nM; construct: GST-full length
Whole data set: some 33,000 sequences, median “E-score (-0.5 to 0.5)” near -0.036, cut for the highest 2% near 0.37. Many of the other results were omitted from the sample, so the highest values are more common in it than they were.
We use 0.06 as the dividing line for PBM E-score: on or above the line is true (1), below is false (0).

Past entries and their recorded results:
{"residue.codes": "GAATCACC", "target.system": "Yer064c (UniProt P40041)", "group": "true (1)"}
{"residue.codes": "CGTGATGA", "target.system": "Yer064c (UniProt P40041)", "group": "true (1)"}

Ask: Quick check, PBM E-score >= 0.06? CAATCACC
Result: true (1)

Ask: Quick check, PBM E-score >= 0.06? GAATCACA
Result: true (1)

Ask: Quick check, PBM E-score >= 0.06? CGTGATAA
Result: false (0)

Ask: Quick check, PBM E-score >= 0.06? CCGGCATC
Result: false (0)

Ask: Quick check, PBM E-score >= 0.06? ATCCATCC
Result: false (0)

Ask: Quick check, PBM E-score >= 0.06? ATCGACAG
Result: false (0)

Ask: Quick check, PBM E-score >= 0.06? GGAAGCCC
Result: false (0)

Ask: Quick check, PBM E-score >= 0.06? GGCCTGTA
Result: false (0)

---

The following sequences are listed with their measured PBM E-score values.
- target.system: Yer064c (UniProt P40041)
- Sequence: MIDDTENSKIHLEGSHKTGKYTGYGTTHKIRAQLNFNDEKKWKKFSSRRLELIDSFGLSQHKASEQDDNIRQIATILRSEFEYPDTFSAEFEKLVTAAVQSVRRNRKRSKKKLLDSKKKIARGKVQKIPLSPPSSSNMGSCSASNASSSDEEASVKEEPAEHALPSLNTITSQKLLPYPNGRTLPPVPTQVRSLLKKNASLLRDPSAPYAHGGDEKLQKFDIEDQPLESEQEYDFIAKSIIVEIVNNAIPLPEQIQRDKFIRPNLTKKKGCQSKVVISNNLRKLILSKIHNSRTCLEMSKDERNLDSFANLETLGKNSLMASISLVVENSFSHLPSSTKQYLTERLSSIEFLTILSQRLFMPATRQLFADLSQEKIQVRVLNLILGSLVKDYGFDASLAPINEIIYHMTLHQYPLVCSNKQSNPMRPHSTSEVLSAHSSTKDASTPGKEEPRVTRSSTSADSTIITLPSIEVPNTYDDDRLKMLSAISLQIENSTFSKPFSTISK
- protocol.text: PBM E-score (8-mer binding enrichment) (E-score (-0.5 to 0.5)); higher = stronger / more preferred TF binding
- measurement.parameters: protein concentration: 200 nM; construct: GST-full length
In all, about 33,000 sequences were measured (“E-score (-0.5 to 0.5)”: median about -0.036, highest 2% from about 0.37 on). This is one part of a sample in which the highest values are shown more often than they occur.
Number, no unit, nothing else.

For orientation, consider the following solved cases.
{"residue.codes": "GTCATGAA", "target.system": "Yer064c (UniProt P40041)", "PBM E-score": 0.308}
{"residue.codes": "ATGGGCGA", "target.system": "Yer064c (UniProt P40041)", "PBM E-score": 0.0478}
{"residue.codes": "GCCATGAC", "target.system": "Yer064c (UniProt P40041)", "PBM E-score": 0.307}
{"residue.codes": "AGCATGAT", "target.system": "Yer064c (UniProt P40041)", "PBM E-score": 0.26}
{"residue.codes": "TGGGCTAA", "target.system": "Yer064c (UniProt P40041)", "PBM E-score": -0.0729}

Ask: Provide PBM E-score value for the following sequence: GCAGACTA
Result: 0.309

Ask: Provide PBM E-score value for the following sequence: TAAGACAA
Result: -0.0363

Ask: Provide PBM E-score value for the following sequence: ACAGACTA
Result: 0.0746

Ask: Provide PBM E-score value for the following sequence: AAGGAGTC
Result: 0.412

Ask: Provide PBM E-score value for the following sequence: AGGGCGAC
Result: -0.0248

Ask: Provide PBM E-score value for the following sequence: ACGCATAT
Result: -0.225

---

- target.system: Yer064c (UniProt P40041)
- Sequence: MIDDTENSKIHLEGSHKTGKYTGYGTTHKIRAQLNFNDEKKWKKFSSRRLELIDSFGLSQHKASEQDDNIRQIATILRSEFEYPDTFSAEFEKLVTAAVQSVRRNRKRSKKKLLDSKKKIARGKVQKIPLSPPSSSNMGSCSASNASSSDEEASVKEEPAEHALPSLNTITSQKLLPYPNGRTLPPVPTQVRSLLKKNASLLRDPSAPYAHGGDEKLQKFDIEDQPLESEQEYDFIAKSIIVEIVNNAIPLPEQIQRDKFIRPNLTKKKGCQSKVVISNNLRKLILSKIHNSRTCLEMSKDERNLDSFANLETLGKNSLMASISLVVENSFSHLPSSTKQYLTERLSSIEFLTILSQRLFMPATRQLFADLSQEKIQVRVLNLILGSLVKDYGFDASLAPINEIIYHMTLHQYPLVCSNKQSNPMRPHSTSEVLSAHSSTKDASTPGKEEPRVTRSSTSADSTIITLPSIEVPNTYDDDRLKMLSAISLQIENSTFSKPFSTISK
- protocol.text: PBM E-score (8-mer binding enrichment) (E-score (-0.5 to 0.5)); higher = stronger / more preferred TF binding
- measurement.parameters: protein concentration: 200 nM; construct: GST-full length
The full ranking holds about 33,000 sequences; the median of “E-score (-0.5 to 0.5)” is about -0.036, and the highest 2% start at about 0.37. Many of the other results were omitted from the sample, so the highest values are more common in it than they were.
We use 0.3 as the dividing line for PBM E-score: on or above the line is true (1), below is false (0).

Past entries and their recorded results:
{"residue.codes": "TGGACTAA", "group": "true (1)"}
{"residue.codes": "ATCCGGGA", "group": "false (0)"}
{"residue.codes": "ACTCATCG", "group": "true (1)"}
{"residue.codes": "TCGAATCA", "group": "true (1)"}
{"residue.codes": "ACTCATCA", "group": "true (1)"}
{"residue.codes": "TGGTCAAA", "group": "false (0)"}

Ask: Quick check, PBM E-score >= 0.3? AACCGCTA
Result: false (0)

---

- target.system: Yer064c (UniProt P40041)
- Sequence: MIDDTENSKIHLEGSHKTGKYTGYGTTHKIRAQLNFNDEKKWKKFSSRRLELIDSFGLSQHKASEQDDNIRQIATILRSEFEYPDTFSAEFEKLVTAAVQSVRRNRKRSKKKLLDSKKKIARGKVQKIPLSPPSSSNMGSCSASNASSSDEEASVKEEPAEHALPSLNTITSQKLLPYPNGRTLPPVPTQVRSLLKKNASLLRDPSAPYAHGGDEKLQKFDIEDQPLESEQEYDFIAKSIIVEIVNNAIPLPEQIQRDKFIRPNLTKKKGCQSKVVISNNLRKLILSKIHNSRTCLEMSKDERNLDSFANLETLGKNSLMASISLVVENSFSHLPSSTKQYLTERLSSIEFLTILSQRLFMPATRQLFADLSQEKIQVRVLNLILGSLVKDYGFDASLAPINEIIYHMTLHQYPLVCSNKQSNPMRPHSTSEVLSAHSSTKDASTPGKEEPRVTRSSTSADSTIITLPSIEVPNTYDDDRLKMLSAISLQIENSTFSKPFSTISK
- protocol.text: PBM E-score (8-mer binding enrichment) (E-score (-0.5 to 0.5)); higher = stronger / more preferred TF binding
- measurement.parameters: protein concentration: 200 nM; construct: GST-full length
The full ranking holds about 33,000 sequences; the median of “E-score (-0.5 to 0.5)” is about -0.036, and the highest 2% start at about 0.37. This is one part of a sample in which the highest values are shown more often than they occur.
The following sequences are listed with their measured PBM E-score values.
Number, no unit, nothing else.

For orientation, consider the following solved cases.
{"residue.codes": "GGGACACA", "measured.parameter": "PBM E-score", "reading": 0.0557}
{"residue.codes": "AACTCATC", "measured.parameter": "PBM E-score", "reading": 0.33}
{"residue.codes": "AACTCATA", "measured.parameter": "PBM E-score", "reading": 0.275}
{"residue.codes": "CCGGTGAG", "measured.parameter": "PBM E-score", "reading": 0.0747}
{"residue.codes": "GACTCATA", "measured.parameter": "PBM E-score", "reading": 0.477}

Ask: Provide PBM E-score value for the following sequence: GGGACGCA
Result: -0.165

Ask: Provide PBM E-score value for the following sequence: CACTCATA
Result: 0.259

Ask: Provide PBM E-score value for the following sequence: CGGCGAGC
Result: -0.108

Ask: Provide PBM E-score value for the following sequence: ACGCGAGC
Result: -0.0659

Ask: Provide PBM E-score value for the following sequence: TGCGTAAA
Result: 0.026

All figures here come from the supplement of paper PMC3334620.
